Test system: CCRF-CEM leukemia
Assay: NCI tumour cell line growth inhibition, 48 h
reported-property: TGI (µM)
Report the value in µM with no unit label.

compound | measurement-target | units-label | TGI
COc1cccc(C2c3cc4c(cc3OC(N3CCCC3)C2c2ccccc2)OCO4)c1O (stereo not drawn) | CCRF-CEM leukemia | µM | 24.6

Here is another compound to look at.
# returns recorded TGI (system: CCRF-CEM leukemia) for `COC(=O)/C=C1\C(=O)Nc2ccc(Br)cc21`
1.17

* * *

Tested on: SK-MEL-5 melanoma
Test: NCI tumour cell line growth inhibition, 48 h
reported-property: TGI (µM)
Give a bare numeral; the unit µM is implied.

compound | TGI (µM)
CN1CC[C@@]2(c3cccc(O)c3)CC(=O)/C(=C/c3ccc(Cl)c(Cl)c3)[C@H]1C2 | 5.53
CC1(c2cccc(C(F)(F)F)c2)CC(c2cccc(C(F)(F)F)c2)=C(C#N)C(=C(C#N)C#N)N1 (stereo unspecified) | 29
COc1cccc(C2c3cc4c(cc3OC(N3CCCC3)C2c2ccccc2)OCO4)c1O (stereo unspecified) | 22.6
Cc1ccc(-c2csc3ncnc(Nc4cccc(O)c4)c23)cc1 | 51.2
N/N=C1\C(=O)N(c2ccc(Cl)c(Cl)c2)C(=O)C1C(=O)Nc1ccc(Cl)c(Cl)c1 (stereo unspecified) | 69.6
CC[n+]1c(/C=C/c2cc(C(=O)OC)n3c2sc2ccccc23)sc2ccccc21 | 28.9

Now for the compound whose TGI we want.
Recorded TGI of `Cc1ccc2c(n1)C(=O)c1cc(C)c(C)cc1C2=O` , please.
79.1
